Target: HIF prolyl hydroxylase
Assay: Inhibition of the activity of HIF prolyl hydroxylase (VBC complex binding test)
Description: 1. In Vitro Tests for Determination of the Activity and Selectivity of HIF Prolyl 4-Hydroxylase Inhibitors 1.a) Inhibition of the Activity of HIF Prolyl Hydroxylase: […] For quantitative determination of the prolyl hydroxylation, a fusion protein which contains both thioredoxin from E. coli and the VBC complex in 80 μl bonding buffer (50 mM Tris, pH 7.5, 120 mM NaCl) is added. […] The amount of bonded VBC complex is determined by measurement of the optical density at 450 nm. […]
Structures can show the parent of a compound that is named as a salt.
Measured parameter: IC50 (µM)
Give bare numbers, in µM.

Use the examples below as a reference point.
CC(C)(C)NC(=O)c1ccc(-n2[nH]cc(-c3cccnc3)c2=O)nc1 [Example 18, hydrochloride]	0.91
O=C(O)c1ccc(-n2[nH]cc(-c3cncc(Br)c3)c2=O)nc1 [Example 10, hydrochloride]	0.26
COCCNCc1ccc(-n2[nH]cc(-c3cccnc3)c2=O)nc1 [Example 5, hydrochloride]	6.3

# get_value(readout= IC50, system= HIF prolyl hydroxylase) for Cc1ccnc(-n2[nH]cc(-c3cncc(C#N)c3)c2=O)c1 [Example 8, hydrochloride]
5.2

###

target: HIF prolyl hydroxylase; assay: Inhibition of the activity of HIF prolyl hydroxylase (VBC complex binding test)
Where a name gives a salt, the structure may show the parent alone.
Measured parameter: IC50 (nM)
Answers are plain numbers, in nM.

Use the examples below as a reference point.
O=C(NCc1ccnc(-n2[nH]cc(-c3cccnc3)c2=O)c1)Nc1c(Cl)cccc1Cl	900
O=c1c(-c2cccnc2)c[nH]n1-c1ccc(Cn2cccc2)cn1 [Example 22, hydrochloride]	3240

Turning now to a further compound:
Fill blank: measured IC50 of the compound Cc1ccccc1NC(=O)OCc1ccc(-n2[nH]cc(-c3cccnc3)c2=O)nc1 is ____.
1600
